# target_of_assay: butyrylcholinesterase (Equus caballus, UniProt P81908)
# Construct: butyrylcholinesterase (from horse serum); purchased Sigma; host or cells: horse serum (natural source)
# Sequence (P81908 whole entry): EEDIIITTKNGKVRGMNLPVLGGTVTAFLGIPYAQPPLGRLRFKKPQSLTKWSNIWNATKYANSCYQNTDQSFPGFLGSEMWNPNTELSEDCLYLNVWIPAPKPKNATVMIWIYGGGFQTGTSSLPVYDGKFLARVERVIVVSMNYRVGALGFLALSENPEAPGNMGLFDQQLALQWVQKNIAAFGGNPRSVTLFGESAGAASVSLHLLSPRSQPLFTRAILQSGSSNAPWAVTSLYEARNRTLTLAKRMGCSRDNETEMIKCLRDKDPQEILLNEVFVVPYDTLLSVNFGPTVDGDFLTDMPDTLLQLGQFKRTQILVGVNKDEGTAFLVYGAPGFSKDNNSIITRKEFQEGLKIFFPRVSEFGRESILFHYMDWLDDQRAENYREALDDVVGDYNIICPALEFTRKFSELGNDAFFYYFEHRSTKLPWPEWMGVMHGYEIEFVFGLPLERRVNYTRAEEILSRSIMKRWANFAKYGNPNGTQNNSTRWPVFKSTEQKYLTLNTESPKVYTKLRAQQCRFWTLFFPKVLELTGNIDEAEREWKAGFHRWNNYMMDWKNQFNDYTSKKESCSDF
# assay_summary: biochemical
# Format: biochemical, horse
# run_parameters: 10^−7M; normalized to 2-chlorophenyl-di-n-butyl phosphate set as 1.0
quantity_name: Change in Absorbance at 412 nm/Minute (Normalized)
Kindly provide the number alone.

Exercise: Entry under review: CCCCP(=O)(Oc1ccccc1Cl)Oc1ccccc1Cl . Reported Change in Absorbance at 412 nm/Minute (Normalized)?
Solution: 0.48

Exercise: Same thing, different compound: CCCCOP(=O)(OCCCC)Oc1ccc(Cl)cc1 [drawing 55]
Solution: 0.338

Exercise: Request: CCCCOP(=O)(OCCCC)Oc1ccc(Br)cc1
Solution: 0.737

---

Change in Absorbance at 412 nm/Minute (Normalized) values by entry
# target_of_assay: butyrylcholinesterase (Equus caballus, UniProt P81908)
# Construct: butyrylcholinesterase (from horse serum); purchased Sigma; host or cells: horse serum (natural source)
# assay_summary: biochemical
# Assay type: biochemical, horse
# run_parameters: 10^−7M; normalized to 2-chlorophenyl-di-n-butyl phosphate set as 1.0

Use these answered entries as a reference point.
CCCCP(=O)(CCCC)Oc1ccccc1Cl :: 1.018
CCCCCCNP(=O)(OCCCC)Oc1ccccc1Cl (stereo not drawn) :: 1.024

Exercise: Which Change in Absorbance at 412 nm/Minute (Normalized) is reported with butyrylcholinesterase (Equus caballus, UniProt P81908) for this entry: CCCCOP(=O)(OCCCC)Oc1cccc(Br)c1 ?
Solution: 6.220

---

# target_of_assay: butyrylcholinesterase (from horse serum) (Equus caballus, UniProt P81908)
# Construct: butyrylcholinesterase (from horse serum); purchased Sigma; host or cells: horse serum (natural source)
# assay_summary: Rates of inactivation of butyrylcholinesterase, Ellman assay
# Type: biochemical
# run_parameters: 100 nM inhibitor, 25° C.
This section presents molecules with their documented k, rate constant of inactivation of butyrylcholinesterase ± S.E.M values.
The figure you give is taken to be in min^−1 × 10^−2; do not add the unit.

Look over these answered cases.
CCOP(=O)(OCC)Oc1ccccc1Cl [Di-ethyl-, 2-Chlorophenyl diethyl phosphate] :: 6.64
CCCCCOP(=O)(OCCCCC)Oc1ccccc1Cl [Di-n-pentyl-, 2-Chlorophenyl di-n-pentyl phosphate] :: 30.44
CC(C)COP(=O)(OCC(C)C)Oc1ccccc1Cl [Di-iso-butyl-, Di-i-butyl 2-Chlorophenyl phosphate] :: 60.83
CCCCOP(=O)(OCCCC)Oc1ccc(Cl)cc1 [Di-n-butyl-(4Cl), Di-n-butyl 4-chlorophenyl phosphate] :: 13.01
CCCOP(=O)(OCCC)Oc1ccccc1Cl [Di-n-propyl-, 2-Chlorophenyl di-n-propyl phosphate] :: 20.21

Switching to the query record.
Exercise: Endpoint output: k, rate constant of inactivation of butyrylcholinesterase ± S.E.M of CCCCOP(=O)(OCCCC)Oc1ccccc1Cl [DB2ClPP, Di-n-butyl 2-chlorophenyl phosphate] . Value?
Solution: 64.76

---

# target_of_assay: Acetylcholinesterase (from electric eel) (Electrophorus electricus)
# Construct: Acetylcholinesterase (from electric eel); purchased Sigma; host or cells: electric eel (natural source)
# Sequence (O42275 24-633): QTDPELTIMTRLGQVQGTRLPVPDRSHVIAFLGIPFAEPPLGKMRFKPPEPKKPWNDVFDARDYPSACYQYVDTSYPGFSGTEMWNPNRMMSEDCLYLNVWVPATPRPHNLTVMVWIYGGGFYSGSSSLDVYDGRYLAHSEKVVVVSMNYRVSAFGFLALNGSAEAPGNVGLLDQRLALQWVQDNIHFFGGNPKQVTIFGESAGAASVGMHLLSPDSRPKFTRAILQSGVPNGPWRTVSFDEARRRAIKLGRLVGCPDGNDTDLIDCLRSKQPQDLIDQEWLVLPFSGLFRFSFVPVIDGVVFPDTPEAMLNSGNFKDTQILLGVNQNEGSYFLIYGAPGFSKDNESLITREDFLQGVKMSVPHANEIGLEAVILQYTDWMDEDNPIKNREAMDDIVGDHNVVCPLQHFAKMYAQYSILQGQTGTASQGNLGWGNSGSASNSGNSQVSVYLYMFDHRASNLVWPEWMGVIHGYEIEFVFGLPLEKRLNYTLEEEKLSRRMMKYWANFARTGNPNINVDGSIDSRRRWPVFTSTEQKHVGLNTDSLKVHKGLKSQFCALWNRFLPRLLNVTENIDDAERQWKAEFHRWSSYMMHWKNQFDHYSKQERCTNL
# assay_summary: Acetylcholinesterase activity, Ellman assay after pre-incubation with inhibitor
# Type: biochemical
# run_parameters: 100 μM compound, 60 minutes at 25° C.
quantity_name: % Activity ± SD (acetylcholinesterase activity relative to enzyme incubated with solvent) (%)
Dear colleague, please return just the value in %, with no unit written.

Exercise: For the molecule shown here, CCCOP(=O)(OCCC)Oc1ccccc1Cl [Di-n-propyl-, 2-Chlorophenyl di-n-propyl phosphate] , give the reported % Activity ± SD (acetylcholinesterase activity relative to enzyme incubated with solvent).
Solution: 97.38

Exercise: Further, for CC(C)COP(=O)(OCC(C)C)Oc1ccccc1Cl [Di-iso-butyl-, Di-i-butyl 2-Chlorophenyl phosphate] ?
Solution: 96.18

Exercise: What about CC(C)OP(=O)(Oc1ccccc1Cl)OC(C)C [Di-iso-propyl-, 2-Chlorophenyl di-i-propyl phosphate] ?
Solution: 97.82

Exercise: Param item: CCCCOP(=O)(OCCCC)Oc1ccc(Cl)cc1 [Di-n-butyl-(4Cl), Di-n-butyl 4-chlorophenyl phosphate]
Solution: 97.61

Exercise: What do we get for COP(=O)(OC)Oc1ccccc1Cl [Di-methyl-, 2-Chlorophenyl dimethyl phosphate] ?
Solution: 101.9

Exercise: // repeat for CCOP(=O)(OCC)Oc1ccccc1Cl [Di-ethyl-, 2-Chlorophenyl diethyl phosphate] and report
Solution: 96.77
